Assay: Storage stability of Oligosaccharide Crystals (I) and freeze-dried Oligosaccharide (I) powders (residual rate by HPLC)
Format: physicochemical
Conditions: 105° C. in the atmosphere under ordinary pressure; days that passed: 1
property.name: Residual rate of oligosaccharides: HPLC purity (%)

compound | value
CC(=O)N[C@H]1[C@H](O[C@H]2[C@@H](O)[C@@H](CO)O[C@@H](O[C@H]3[C@H](O)[C@@H](O)C(O)O[C@@H]3CO)[C@@H]2O)O[C@H](CO)[C@@H](O)[C@@H]1O (stereo partly shown) [Crystals No. 1, GlcNAcβ1, 3Galβ1, 4Glc] | 99.7
CC(=O)N[C@H]1[C@H](O[C@H]2[C@@H](O)[C@@H](CO)O[C@@H](O[C@H]3[C@H](O)[C@@H](O)C(O)O[C@@H]3CO)[C@@H]2O)O[C@H](CO)[C@@H](O)[C@@H]1O (stereo partly drawn) [Freeze-dried GlcNAcβ1, 3Gal-β1, 4Glc powders] [GlcNAcβ1,3Galβ1,4Glc] | 99.7
CC(=O)N[C@H]1[C@H](O[C@H]2[C@@H](O)[C@@H](CO)O[C@@H](O[C@H]3[C@H](O)[C@@H](O)C(O)O[C@@H]3CO)[C@@H]2O)O[C@H](CO)[C@@H](O[C@@H]2O[C@H](CO)[C@H](O)[C@H](O[C@@H]3O[C@H](CO)[C@@H](O)[C@H](O)[C@H]3NC(C)=O)[C@H]2O)[C@@H]1O (stereo partly drawn) [Freeze-dried GlcNAcβ1, 3Gal-β1, 4GlcNAcβ1, 3Galβ1, 4Glc powd] [GlcNAcβ1,3Galβ1,4GlcNAcβ1,3Galβ1,4Glc] | 98.2
CC(=O)N[C@H]1[C@H](O[C@H]2[C@@H](O)[C@@H](CO)O[C@@H](O[C@H]3[C@H](O)[C@@H](O)C(O)O[C@@H]3CO)[C@@H]2O)O[C@H](CO)[C@@H](O[C@@H]2O[C@H](CO)[C@H](O)[C@H](O)[C@H]2O)[C@@H]1O (stereo partly shown) [Crystals No. 2, Galβ1, 4GlcNAcβ1, 3Galβ1, 4Glc] | 99.0

====

Assay: Storage stability of Oligosaccharide Crystals (I) and freeze-dried Oligosaccharide (I) powders (residual rate by HPLC)
Format: physicochemical
Conditions: 105° C. in the atmosphere under ordinary pressure; days that passed: 0
The entries below are paired with their reported Residual rate of oligosaccharides: HPLC purity (%).
property.name: Residual rate of oligosaccharides: HPLC purity (%)

compound | value
CC(=O)N[C@H]1[C@H](O[C@H]2[C@@H](O)[C@@H](CO)O[C@@H](O[C@H]3[C@H](O)[C@@H](O)C(O)O[C@@H]3CO)[C@@H]2O)O[C@H](CO)[C@@H](O)[C@@H]1O (stereo partly drawn) [Freeze-dried GlcNAcβ1, 3Gal-β1, 4Glc powders] [GlcNAcβ1,3Galβ1,4Glc] | 99.8
CC(=O)N[C@H]1[C@H](O[C@H]2[C@@H](O)[C@@H](CO)O[C@@H](O[C@H]3[C@H](O)[C@@H](O)C(O)O[C@@H]3CO)[C@@H]2O)O[C@H](CO)[C@@H](O[C@@H]2O[C@H](CO)[C@H](O)[C@H](O)[C@H]2O)[C@@H]1O (stereo partly shown) [Crystals No. 2, Galβ1, 4GlcNAcβ1, 3Galβ1, 4Glc] | 99.3
CC(=O)N[C@H]1[C@H](O[C@H]2[C@@H](O)[C@@H](CO)O[C@@H](O[C@H]3[C@H](O)[C@@H](O)C(O)O[C@@H]3CO)[C@@H]2O)O[C@H](CO)[C@@H](O)[C@@H]1O (stereo partly shown) [Crystals No. 1, GlcNAcβ1, 3Galβ1, 4Glc] | 98.0
CC(=O)N[C@H]1[C@H](O[C@H]2[C@@H](O)[C@@H](CO)O[C@@H](O[C@H]3[C@H](O)[C@@H](O)C(O)O[C@@H]3CO)[C@@H]2O)O[C@H](CO)[C@@H](O[C@@H]2O[C@H](CO)[C@H](O)[C@H](O)[C@H]2O)[C@@H]1O (stereo partly drawn) [Freeze-dried Galβ1, 4GlcNAc-β1, 3Galβ1, 4Glc powders] [Galβ1,4GlcNAcβ1,3Galβ1,4Glc] | 99.3
